assay: Tanguay_ZF_120hpf_AXIS_legacy: (Legacy) Oregon State University Tanguay Lab 120 Hour Post-fertilization zebrafish Assay for Body Axis Malformation (AID 2283635)
Results filed as inconclusive are left out. Activity calls are given as the source filed them. The calls were made as follows: active = hit-call score of the fitted dose curve at least 0.9, where 1 is the maximum; inconclusive = response in the unintended direction; inactive = score below 0.9.
Lab note: assign the record to one of active, inactive

O=[N+]([O-])c1ccc(Oc2ccc(Cl)cc2Cl)cc1: inactive

Below: the item to evaluate.
Per the assay record, what outcome was assigned to COP(=S)(OC)SCN1C(=O)c2ccccc2C1=O ?
inactive

----------
Read-out: Cytochrome P450 (CYP1A1), CYP1A1 (gene 1543)
Experiment: LTEA_HepaRG_CYP1A1: Life Technologies and Expression Analysis (LTEA) Assay for Cytochrome P450 (CYP1A1) using HepaRG (AID 2283454)
Conditions: mRNA level, 48 h; actives raise or lower the signal
Procedure: LTEA_HepaRG is a cell based, multiplexed-readout assay that uses HepaRG, a human liver cell line, with measurements taken at 48 hours after chemical dosing on a 96-well plate.LTEA_HepaRG_CYP1A1 is one of 102 assay component(s) measured in the LTEA HepaRG cell culture assay. It is a marker of NR mediated metabolism.Data from the assay component LTEA_HepaRG_CYP1A1 was analyzed into 1 endpoint. […]
Calls of active or inactive are those of the source. How the source made its calls: active means hit-call score of the fitted dose curve at least 0.9, where 1 is the maximum; inactive means score below 0.9.
Assign a class; possible classes are 1 (yes) for active, 0 (no) for inactive

C=CCc1ccc2c(c1)OCO2: 1 (yes)
CN(C)C(=O)Nc1ccc(Cl)cc1: 1 (yes)
O=Cc1ccco1: 1 (yes)
c1ccc(N=Nc2ccccc2)cc1: 1 (yes)
CCCCCCCCOC(=O)c1ccc(C(=O)OCCCCCCCC)c(C(=O)OCCCCCCCC)c1: 1 (yes)

Continue with the next compound.
// outcome(item) with item = ClC1=C(Cl)C2(Cl)C3C(Cl)C=CC3C1(Cl)C2(Cl)Cl (stereo not drawn)
1 (yes)

----------
assay: ATG_BRE_CIS: Attagene CIS-FACTORIAL HepG2 Assay for human Bone Morphogenetic Protein (BMP) Response Element (BRE) (AID 2282933); details: HepG2 BMP response element reporter, Attagene transcription factor profiling; actives raise or lower the signal
Calls of active or inactive are those of the source. How the source made its calls: active means hit-call score of the fitted dose curve at least 0.9, where 1 is the maximum; inactive means score below 0.9.
readout-name: outcome

Reference set, count: 7
Nc1ccc(Oc2ccc(N)cc2)cc1: inactive
OCCOCCO: inactive
c1ccc2c(c1)-c1cccc3cccc-2c13: inactive
CCCCC(CC)COC(=O)c1ccc(C(=O)OCC(CC)CCCC)c(C(=O)OCC(CC)CCCC)c1 (stereo not drawn): inactive
C[N+](C)(C)CC1CO1 (stereo not drawn): inactive
Cc1ccc(N=C=O)cc1N=C=O: inactive
O=C(Oc1ccc(Br)cc1)N1CCN2CCC1CC2: inactive

Now for the molecule whose outcome we want.
Which value of outcome has been reported for O=C(O)C1C2CCC(O2)C1C(=O)O (stereo not drawn) in the records?
inactive

----------
Assay: ATG_CMV_CIS: Attagene CIS-FACTORIAL HepG2 Assay for human CMV (Internal Marker) (AID 2282928);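 also: endpoint acts as a background internal control marker rather than a target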
Details: HepG2 CMV promoter reporter, transcription factor profiling; actives raise or lower the signal
Description: ATG_CIS is a cell-based, multiplexed-readout assay that uses HepG2, a human liver cell line, with measurements taken at 24 hours after chemical dosing in a 24-well plate.ATG_CMV_CIS is one of 52 assay component(s) measured or calculated from the ATG_CIS assay. […] This assay endpoint, ATG_CMV_CIS, was analyzed with bidirectional fitting relative to DMSO as the negative control and baseline of activity. […]
Active and inactive are the calls of the source. Rule for the calls: active = hit-call score of the fitted dose curve at least 0.9, where 1 is the maximum; inactive = score below 0.9.
readout-name: AC50

Please review the entries below; each comes with its answer.
Nc1ccc(N=Nc2ccccc2)cc1: inactive
Nc1ccc(Cl)cc1N: 6.32 µM (active)
CN(C)C(=O)Nc1ccc(Cl)cc1: inactive
CS(=O)(=O)NC(=O)c1cc(Oc2ccc(C(F)(F)F)cc2Cl)ccc1[N+](=O)[O-]: inactive

Name the recorded AC50 for C1=Cc2cccc3cccc1c23 .
inactive

Try the compound CC(C)(C)OOC(=O)c1ccccc1
74.8 µM (active)

Similarly, Cc1ccc(N=C=O)cc1N=C=O ?
inactive

Now this one: O=C1CCCO1
inactive

Consider next the compound ClC1=C(Cl)C2(Cl)C3C(Cl)C=CC3C1(Cl)C2(Cl)Cl (stereo unspecified) in the same way.
100 µM (active)

c1ccc(NNc2ccccc2)cc1 , same question.
inactive

Each recorded value in this set is attributed to PubChem BioAssay (EPA / NIEHS).
